- assayProcedure: In vitro mouse liver microsomal stability assay
- Assay type: in vitro ADME
- experimentalParameters: liver microsomes
measuredProperty: half-life at 1 μM (min)
Field format: number, assumed min, no unit text.

So, CCN(CC)CCNC(=O)c1c(C)[nH]c(/C=C2\C(=O)Nc3ccc(F)cc32)c1C ? Its half-life at 1 μM was 10

---

- assayProcedure: In vitro mouse liver microsomal stability assay
- Format: in vitro ADME
- experimentalParameters: liver microsomes
measuredProperty: microsomal CLint at 1 μM (µL/min/mg)
Field format: number, assumed µL/min/mg, no unit text.

So, CCN(CC)CCNC(=O)c1c(C)[nH]c(/C=C2\C(=O)Nc3ccc(F)cc32)c1C [Sunitinib] ? Its microsomal CLint at 1 μM was 69
